Item-by-item account of MIC
Tested on: RIF-R2 (Mtb strain resistant to rifampicin)
Experiment: microbe, parasite or virus in culture
Assay type: cell-based
Details: Mycobacterium tuberculosis
Number only, in µM; omit the unit.

COMPOUND: O=[N+]([O-])c1cn(Cc2cccc(Cn3cnc([N+](=O)[O-])c3)n2)cn1 [Compound 2b]
ASSAYED_SYSTEM: RIF-R2 (Mtb strain resistant to rifampicin)
RECORDED_METRIC: MIC
REPORTED: 68

Okay, next one:
Please supply the value of reported MIC for the item O=C(C[n+]1cn(Cc2cccc(Cn3c[n+](CC(=O)c4ccccc4)c4ccccc43)n2)c2ccccc21)c1ccccc1.[Br-].[Br-] [Compound 6c]
100
